Entries and their DC50
target: UniProtKB P51531; assay: HiBiT assay for protein degradation, Hela SMARCA2-HiBiT cells (A series); assay type: cell-based; set-up: Hela cells were genetically modified via CRISPR/Cas9 to fuse HiBiT to the carboxy terminus of SMARCA2; host or cells: HeLa (CRISPR/Cas9 HiBiT knock-in); settings: Hela SMARCA2-HiBiT cells, 24 hours treatment; read-out: SMARC A2 Hela HiBit DC50

[[record]]
smiles_text = "Cc1ncsc1-c1ccc([C@H](CN2CCC(F)(F)CC2)NC(=O)[C@@H]2C[C@@H](O)CN2C(=O)[C@@H](n2cc([C@H]3CC[C@H](CN4CCC(c5ccc6c(c5)-n5c(nc(=O)c7c(Cl)cccc75)C65CCCCC5)CC4)CC3)nn2)C(C)(C)C)cc1"
observed_measurement = "< 100 nM"


# query: DC50 of entry CC(C)(C)[C@H](NC(=O)C1(F)CC1)C(=O)N1C[C@H](O)C[C@H]1C(=O)N[C@@H](CCCCCN1CCC(c2ccc3c(c2)C2(CCCCC2)c2nc(=O)c4c(Br)cccc4n2-3)CC1)c1ccc(Cl)cc1
> 1000 nM

----------
Entries and their DC50
target: UniProt P51531; assay: HiBiT assay for protein degradation, Hela SMARCA2-HiBiT cells (A series); assay type: cell-based; parameters: Hela cells were genetically modified via CRISPR/Cas9 to fuse HiBiT to the carboxy terminus of SMARCA2; host or cells: HeLa (CRISPR/Cas9 HiBiT knock-in); conditions: Hela SMARCA2-HiBiT cells, 24 hours treatment; read-out: SMARC A2 Hela HiBit DC50

[[record]]
molecule = "COCCOC[C@H](NC(=O)[C@@H]1C[C@@H](O)CN1C(=O)[C@@H](n1cc([C@H]2CC[C@H](CN3CCC(c4ccc5c(c4)-n4c(nc(=O)c6c(Cl)cccc64)C54CCCCC4)CC3)CC2)nn1)C(C)(C)C)c1ccc(-c2scnc2C)cc1 [Compound A86]"
target_desc = "UniProt P51531"
assay_metric = "DC50"
observed_measurement = "< 10 nM"


Could you now look at the following molecule, please?
Which measured DC50 belongs to COCCOCCOCCOCCOC[C@H](NC(=O)[C@@H]1C[C@@H](O)CN1C(=O)[C@@H](n1cc([C@H]2CC[C@H](CN3CCC(c4ccc5c(c4)-n4c(nc(=O)c6c(Cl)cccc64)C5(C)C)CC3)CC2)nn1)C(C)(C)C)c1ccc(-c2scnc2C)cc1 [Compound A151] , tested on UniProt P51531?
< 10 nM

----------
target: SMARCA2 (Homo sapiens, UniProt P51531); assay: HiBiT assay for protein degradation, Hela SMARCA2-HiBiT cells (A series); format: cell-based; set-up: Hela cells were genetically modified via CRISPR/Cas9 to fuse HiBiT to the carboxy terminus of SMARCA2; host or cells: HeLa (CRISPR/Cas9 HiBiT knock-in); conditions: HeLa, read-out: SMARC A2 Hela HiBit Dmax (%)
Sequence (P51531 whole entry): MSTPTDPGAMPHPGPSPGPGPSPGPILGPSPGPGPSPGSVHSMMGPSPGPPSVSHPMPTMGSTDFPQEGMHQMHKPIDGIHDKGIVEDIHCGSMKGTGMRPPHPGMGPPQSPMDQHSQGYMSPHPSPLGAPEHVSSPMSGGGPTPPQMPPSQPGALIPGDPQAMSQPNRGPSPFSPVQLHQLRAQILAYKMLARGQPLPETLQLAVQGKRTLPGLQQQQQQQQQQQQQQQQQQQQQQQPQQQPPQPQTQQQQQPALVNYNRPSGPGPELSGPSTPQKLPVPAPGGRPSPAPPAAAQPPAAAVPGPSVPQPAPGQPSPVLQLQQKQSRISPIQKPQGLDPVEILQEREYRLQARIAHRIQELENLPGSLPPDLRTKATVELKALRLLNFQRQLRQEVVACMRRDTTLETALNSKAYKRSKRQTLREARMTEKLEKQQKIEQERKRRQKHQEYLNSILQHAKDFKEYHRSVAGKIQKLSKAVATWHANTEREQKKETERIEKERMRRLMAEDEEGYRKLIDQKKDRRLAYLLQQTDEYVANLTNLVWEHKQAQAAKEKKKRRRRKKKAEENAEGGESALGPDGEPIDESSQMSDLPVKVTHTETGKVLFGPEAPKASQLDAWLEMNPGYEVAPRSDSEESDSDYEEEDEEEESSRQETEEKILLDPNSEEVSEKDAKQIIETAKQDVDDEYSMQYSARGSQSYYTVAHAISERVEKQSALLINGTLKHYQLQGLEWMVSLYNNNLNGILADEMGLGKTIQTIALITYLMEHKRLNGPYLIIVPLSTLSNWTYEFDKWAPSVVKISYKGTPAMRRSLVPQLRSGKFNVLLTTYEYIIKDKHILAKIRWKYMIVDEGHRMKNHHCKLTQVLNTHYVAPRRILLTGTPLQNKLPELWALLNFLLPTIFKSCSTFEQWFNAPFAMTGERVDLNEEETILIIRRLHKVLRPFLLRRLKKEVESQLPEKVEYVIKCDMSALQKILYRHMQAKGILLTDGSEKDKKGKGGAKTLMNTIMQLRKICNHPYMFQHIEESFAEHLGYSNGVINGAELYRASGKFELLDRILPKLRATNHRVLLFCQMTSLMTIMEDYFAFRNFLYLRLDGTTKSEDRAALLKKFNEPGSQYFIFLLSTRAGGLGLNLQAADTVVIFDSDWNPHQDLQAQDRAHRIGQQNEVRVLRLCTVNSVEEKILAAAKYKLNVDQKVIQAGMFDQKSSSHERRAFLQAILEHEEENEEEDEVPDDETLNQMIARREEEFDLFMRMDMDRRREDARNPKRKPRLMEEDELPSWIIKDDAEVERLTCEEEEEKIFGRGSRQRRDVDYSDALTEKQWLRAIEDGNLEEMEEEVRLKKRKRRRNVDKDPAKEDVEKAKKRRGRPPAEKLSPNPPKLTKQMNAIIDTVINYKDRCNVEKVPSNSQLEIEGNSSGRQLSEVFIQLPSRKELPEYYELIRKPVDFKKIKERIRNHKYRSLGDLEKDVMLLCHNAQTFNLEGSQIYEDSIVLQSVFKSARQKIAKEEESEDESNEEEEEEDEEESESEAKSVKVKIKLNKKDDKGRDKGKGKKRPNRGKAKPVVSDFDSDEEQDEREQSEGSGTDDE
Entries and their Dmax

Below: 2 compounds and their reported Dmax.
[[record]]
compound = "C[C@H](NC(=O)[C@@H]1C[C@@H](O)CN1C(=O)[C@@H](n1cc([C@H]2CC[C@H](CN3CCC(c4ccc5c(c4)-n4c(nc(=O)c6c(Br)cccc64)C54CCCCC4)CC3)CC2)nn1)C(C)(C)C)c1ccc(Cl)cc1 [Compound A68]"
assay_metric = "Dmax"
observed_measurement = "> 90%"

[[record]]
compound = "Cc1ncsc1-c1ccc([C@H](C)NC(=O)[C@@H]2C[C@@H](O)CN2C(=O)[C@@H](NC(=O)[C@H]2CC[C@H](CN3CCC(c4ccc5c(n4)-n4c(nc(=O)c6c(Br)cccc64)C54CCCCC4)CC3)CC2)C(C)(C)C)cc1 [Compound A51]"
assay_metric = "Dmax"
observed_measurement = "50 to 69%"


Which measured Dmax belongs to Cc1ncsc1-c1ccc([C@H](C)NC(=O)[C@@H]2C[C@@H](O)CN2C(=O)[C@@H](NC(=O)CCCN2CCC(c3ccc4c(c3)C3(CCCCC3)c3nc(=O)c5c(Cl)cccc5n3-4)CC2)C(C)(C)C)cc1 [Compound A7] , tested on SMARCA2 (Homo sapiens, UniProt P51531)?
70 to 90%
